Molecular target: GLP-1 receptor (GLP-1R), primary cAMP assay (human, UniProt P43220 24-463)
Assay: cell-based or functional assay
Starred links: 1 amine or outer side, 2 acyl side, 3 side chain; linkers in the order of their positions; H or OH if unused. Non-standard residues stand in square brackets, D forms with d. Groups on a side chain read outwards from the residue. Primed or numbered codes have the meaning given here. No end group written: not given here. *: point of attachment. γGlu = O=C(O)[C@H](CCC(=O)[*:2])N[*:1]; αMeF = C[C@](N)(Cc1ccccc1)C(=O)O; αMeK = C[C@](N)(CCCCN)C(=O)O; Lauroyl = CCCCCCCCCCCC(=O)*; αMeS = C[C@](N)(CO)C(=O)O; PEG2′ = not defined here; Aib = CC(C)(N)C(=O)O
value kind: Primary assay EC50 (cAMP), n2 (pM)
Provide the reading as a plain figure in pM.

Example results:
binder	observed
H[Aib]EGS[αMeF]TSDV[αMeS]SK([PEG2′-PEG2′-γGlu-Lauroyl])LEGEAA[αMeK]EFIAK([PEG2′-PEG2′-γGlu-Lauroyl])VVEGG-NH2 [SEQ ID NO: 263]	1.45
H[Aib]EGS[αMeF]TSDV[αMeS]SK([PEG2′-PEG2′-γGlu-Lauroyl])LEGEAA[αMeK]E[αMeF]IAK([PEG2′-PEG2′-γGlu-Lauroyl])VVEGG-NH2 [SEQ ID NO: 405]	3.66
H[Aib]EGS[αMeF]TSDV[αMeS]SK([PEG2′-PEG2′-γGlu-Lauroyl])LEGEAA[αMeK]EFIAWK([PEG2′-PEG2′-γGlu-Lauroyl])VEGG-NH2 [SEQ ID NO: 264]	7.37

Turning to the following binder.
Lab note: H[Aib]EGS[αMeF]TSDVSK([PEG2′-PEG2′-γGlu-Lauroyl])YLEGEAA[αMeK]EFIAK([PEG2′-PEG2′-γGlu-Lauroyl])VVEGG-NH2 [SEQ ID NO: 252] gave Primary assay EC50 (cAMP), n2 of 2.17
